biological target: Cdc7/Dbf4 complex (Homo sapiens, UniProt O00311); construct: Full-length Cdc7 co-expressed with full-length Dbf4; purchased Carna Biosciences (Kobe); experiment: Measurement of Cdc7 kinase inhibitory activity (Transcreener ADP HTRF assay); assay type: biochemical; settings: test compound 1 μM; Cdc7/Dbf4, 1.0 μm ATP, 10 μg/ml MCM2; read-out: inhibitory rate (%) at 1 μM
Sequence (O00311 whole entry): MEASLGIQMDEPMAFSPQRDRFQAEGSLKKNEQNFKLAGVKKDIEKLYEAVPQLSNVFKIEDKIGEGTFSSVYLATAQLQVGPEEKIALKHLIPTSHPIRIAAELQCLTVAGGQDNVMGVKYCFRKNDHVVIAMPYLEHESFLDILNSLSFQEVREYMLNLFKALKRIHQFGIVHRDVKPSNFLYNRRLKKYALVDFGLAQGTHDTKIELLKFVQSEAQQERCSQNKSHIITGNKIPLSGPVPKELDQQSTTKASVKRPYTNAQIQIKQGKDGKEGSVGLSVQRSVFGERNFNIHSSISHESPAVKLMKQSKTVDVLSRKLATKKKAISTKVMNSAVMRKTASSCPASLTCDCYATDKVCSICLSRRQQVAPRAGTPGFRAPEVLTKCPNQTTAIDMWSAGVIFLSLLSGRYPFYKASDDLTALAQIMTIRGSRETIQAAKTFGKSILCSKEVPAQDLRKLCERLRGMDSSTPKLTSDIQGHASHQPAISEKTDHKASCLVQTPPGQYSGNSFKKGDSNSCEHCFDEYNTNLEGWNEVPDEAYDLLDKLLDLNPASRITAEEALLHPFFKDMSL
Sequence (Q9UBU7 whole entry partner): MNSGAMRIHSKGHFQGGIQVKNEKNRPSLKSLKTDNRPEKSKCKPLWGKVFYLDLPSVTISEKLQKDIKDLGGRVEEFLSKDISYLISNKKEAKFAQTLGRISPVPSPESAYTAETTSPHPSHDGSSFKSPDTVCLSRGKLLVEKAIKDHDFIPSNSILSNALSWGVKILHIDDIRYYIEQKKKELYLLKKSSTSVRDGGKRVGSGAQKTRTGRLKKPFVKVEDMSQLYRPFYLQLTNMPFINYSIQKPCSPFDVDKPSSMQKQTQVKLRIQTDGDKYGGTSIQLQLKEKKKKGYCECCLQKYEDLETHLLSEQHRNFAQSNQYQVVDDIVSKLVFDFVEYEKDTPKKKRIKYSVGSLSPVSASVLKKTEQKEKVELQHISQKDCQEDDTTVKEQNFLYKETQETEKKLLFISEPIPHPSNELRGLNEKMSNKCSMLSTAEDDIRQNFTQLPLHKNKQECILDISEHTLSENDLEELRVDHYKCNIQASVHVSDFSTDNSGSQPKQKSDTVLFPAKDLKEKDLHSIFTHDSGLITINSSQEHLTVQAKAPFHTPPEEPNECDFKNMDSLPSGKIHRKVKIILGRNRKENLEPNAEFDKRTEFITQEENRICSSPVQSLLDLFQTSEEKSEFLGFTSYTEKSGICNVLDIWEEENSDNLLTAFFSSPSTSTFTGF
Counter-ions that a name gives are not always drawn.
assay-endpoint: inhibition at 1 µM (%)
Reply with just the number (in %).

Please review the entries below; each comes with its answer.
- compound: "Cc1[nH]ncc1-c1cc2nc([C@H]3CC4CCN3CC4)[nH]c(=O)c2s1 [Example 164, trifluoroacetate]"
  inhibition at 1 µM / %: 101
- compound: "Cc1[nH]ncc1-c1cc2nc([C@]34C[C@H]3CCN4)[nH]c(=O)c2s1 [Example 157, dihydrochloride]"
  inhibition at 1 µM / %: 92

Could you share which inhibition at 1 µM value was measured for Cc1[nH]ncc1-c1cc2nc([C@@H]3C[C@@H](F)CN3)[nH]c(=O)c2s1 [Example 23, dihydrochloride] ?
98.4

// query: CNCc1nc2cc(-c3cn[nH]c3C)sc2c(=O)[nH]1 [Example 133, dihydrochloride]
107
